Biological target: HLA-A*02:03
Experiment: IEDB peptide-MHC binding, purified MHC/competitive/radioactivity; filed as Kd, often an IC50 or EC50 that approximates it; bounds were set here for any values at or beyond the usual limits of such assays
Conditions: source organism: Mammarenavirus machupoense
assayEndpoint: Kd
Give the value; after it, write the unit.

[Q] Checklist item: Kd tested on HLA-A*02:03, entry `KSYFTNAAL` , value?
[A] 7.18 µM

----------
Target: HLA-A*02:16
Assay: IEDB peptide-MHC binding, purified MHC/direct/fluorescence; filed as Kd, often an IC50 or EC50 that approximates it; bounds were set here for any values at or beyond the usual limits of such assays
Details: source organism: Pergamino virus
pKd: −log10 of the molar value.
assayEndpoint: pKd

[Q] Return reported pKd; argument: `SCINGQCPY`
[A] ≤ 4.70

----------
Target: HLA-A*02:19
Test: IEDB peptide-MHC binding, purified MHC/competitive/fluorescence; filed as Kd, often an IC50 or EC50 that approximates it; bounds were set here for any values at or beyond the usual limits of such assays
Settings: source organism: Shigella flexneri 5 str. 8401
pKd: −log10 of the molar value.
assayEndpoint: pKd

[Q] Any idea what pKd came out for `FGALFMWLL` on HLA-A*02:19?
[A] ≤ 4.70

----------
Biological target: HLA-A*02:03
Test: IEDB peptide-MHC binding, purified MHC/direct/fluorescence; filed as Kd, often an IC50 or EC50 that approximates it; bounds were set here for any values at or beyond the usual limits of such assays
Details: source organism: Variola virus
assayEndpoint: Kd
Could you kindly put the unit after your number?

[Q] I have this sequence here, `FLQQSIFRF` , and I need its recorded Kd.
[A] 747 nM

----------
Target: HLA-B*57:01
Assay: IEDB peptide-MHC binding, purified MHC/competitive/fluorescence; filed as Kd, often an IC50 or EC50 that approximates it; bounds were set here for any values at or beyond the usual limits of such assays
Settings: source organism: Giardia lamblia ATCC 50803
assayEndpoint: Kd (nM)
A number alone suffices; assume nM.

# constructSequence, reportedMeasurement
data = [
    ("IANTTDHFF", 159),
]

Shift focus to the following entry.
[Q] Lab note: need Kd with HLA-B*57:01 for entry `ISKANWMTY` , please look it up.
[A] 83.7

----------
Target: HLA-B*15:01
Assay: IEDB peptide-MHC binding, purified MHC/direct/fluorescence; filed as Kd, often an IC50 or EC50 that approximates it; bounds were set here for any values at or beyond the usual limits of such assays
Details: source organism: Pasteurella multocida
assayEndpoint: Kd
Phrase the answer as number then unit, nothing more needed.

[Q] Look up Kd for this sequence: `LMAEDLANV`
[A] 7.69 µM

----------
Biological target: HLA-A*68:02
Assay: IEDB peptide-MHC binding, purified MHC/competitive/fluorescence; filed as Kd, often an IC50 or EC50 that approximates it; bounds were set here for any values at or beyond the usual limits of such assays
Conditions: source organism: Vaccinia virus WR
assayEndpoint: Kd

[Q] Suppose we examine the sequence `NYFNRMFHF` ; what Kd value has been reported?
[A] ≥ 20 µM

----------
Target: HLA-B*15:01
Test: IEDB peptide-MHC binding, purified MHC/competitive/fluorescence; filed as Kd, often an IC50 or EC50 that approximates it; bounds were set here for any values at or beyond the usual limits of such assays
Details: source organism: Giardia lamblia ATCC 50803
assayEndpoint: Kd

[Q] For `AILAGEHKC` , what is its reported Kd?
[A] ≥ 20 µM

These measurements were taken from the Immune Epitope Database (IEDB).
